Biological target: T1, Cyno CD33 ECD-HSA (cynomolgus monkey)
T1 construct: Cyno CD33 ECD fused to HSA and a six-histidine tag; also called C33W1
Assay: ProteOn SPR, mAb captured on anti-human Fc, antigen as analyte
Parameter: koff (s⁻¹)
Please give a number only; it is taken to be in s⁻¹.

Ask | Requested field: koff. Item: C33B916 (antibody, V domains shown, OMNIMouse-derived anti-CD33 mAb; same V regions as C33B908; also called C33H256/C33L122; C33F554) VH: QVQLVESGGGVVQPGRSLRLSCATSGFTFSNYGMHWVRQAPGKGLEWVAVIWYVGSHKYYADSVKGRFTISRDNSKNTLYLQMNSLRAEDTAVYYCARDGSLCFDYWGQGTLVTVSS VL: SYELTQPPSVSVSPGQTANISCSGVTLGYNYAYWYQQKPGQSPILVISQDTQRPSGIPERFSGSNSGNTATLTISGTQAMDEAAYYCQAWDITTVLFGGGTKLTVL
Reply | 0.000403
